# study.system: glutathione S-transferase (GST)-fusion human ERK2 protein (Homo sapiens)
# Construct: purchased Carna Biosciences, Inc; host or cells: E. coli expression system
# Sequence (P28482 whole entry, the tested form may be a part): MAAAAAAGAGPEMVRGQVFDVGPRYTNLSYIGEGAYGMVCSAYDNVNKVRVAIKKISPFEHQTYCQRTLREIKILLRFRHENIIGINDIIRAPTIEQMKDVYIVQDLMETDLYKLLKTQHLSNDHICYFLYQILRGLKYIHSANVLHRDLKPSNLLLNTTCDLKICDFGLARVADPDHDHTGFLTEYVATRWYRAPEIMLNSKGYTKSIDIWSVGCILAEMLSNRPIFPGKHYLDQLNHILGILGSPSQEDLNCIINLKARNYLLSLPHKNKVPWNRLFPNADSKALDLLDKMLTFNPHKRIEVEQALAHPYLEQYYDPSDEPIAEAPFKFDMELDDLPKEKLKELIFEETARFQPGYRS
# method.description: ERK2 enzyme assay (LabChip mobility shift)
# Type: biochemical
# assay.conditions: IC50 class; 2 nM ERK2, 4.25 μM FL-Peptide 8, 43 μM ATP; read-out: ERK2 Inhibitory Activity
property: IC50

compound: O=C(Nc1ccc2ncc(-c3cn[nH]c3)cc2n1)N[C@H]1CCC[C@@H]1OCc1ccccc1
result: 100 to 1000 nM
--
compound: O=C(Nc1ccc2ncc(Nc3cnccn3)cc2n1)NC1CCCC1
result: 100 to 1000 nM
--
compound: O=C(NCC1CCC1)Nc1ccc2ncc(-c3cn[nH]c3)cc2n1
result: < 100 nM
--
compound: O=C(Nc1ccc2ncc(-c3cnn(CCN4CCOCC4)c3)cc2n1)NC1CCCC1
result: < 100 nM
--
compound: COc1cc(Nc2cnc3ccc(NC(=O)NC4CCCC4)nc3c2)cc(OC)c1
result: 1000 to 10000 nM
--
compound: O=C(Nc1ccc2ncc(-c3cccc(CO)c3)cc2n1)NC1CCCC1
result: < 100 nM
--
compound: COCCN(C)CCn1cc(-c2cnc3ccc(NC(=O)NC4CCCC4)nc3c2)cn1
result: < 100 nM
--
compound: O=C(NCC1C[C@@H]2CC[C@H]1C2)Nc1ccc2ncc(-c3cn[nH]c3)cc2n1 (stereo partly shown)
result: < 100 nM
--
compound: CN1CCN(c2cnc3ccc(NC(=O)NC4CCCC4)nc3c2)CC1
result: 100 to 1000 nM
--
compound: Cn1cc(-c2cc3nc(NC(=O)NC4CCCC4)ccc3nc2N)cn1
result: 1000 to 10000 nM
--
compound: CC(C)OCCNC(=O)Nc1ccc2ncc(-c3cn[nH]c3)cc2n1
result: < 100 nM
--
compound: COc1ccc(-c2cnc3ccc(NC(=O)NC4CCCC4)nc3c2)cc1OC
result: < 100 nM
--
compound: O=C(Nc1ccc2ncc(-c3cnn(CC4CNC4)c3)cc2n1)NC1CCCC1
result: < 100 nM
--
compound: Cn1cncc1-c1cnc2ccc(NC(=O)NC3CCCC3)nc2c1
result: < 100 nM
--
compound: O=C(Nc1ccc2ncc(-c3cnn(CCCN4CCNCC4)c3)cc2n1)NC1CCCC1
result: < 100 nM
--
compound: O=C(Nc1ccc2ncc(-c3cn[nH]c3)cc2n1)N[C@H]1CCNC1
result: < 100 nM
--
compound: O=C(NCc1ccccc1)Nc1ccc2ncc(-c3cn[nH]c3)cc2n1
result: < 100 nM
--
compound: COCCOc1cc(-c2cnc3ccc(NC(=O)NC4CCCC4)nc3c2)ccc1O
result: < 100 nM
--
compound: CN(CCNC(=O)Nc1ccc2ncc(-c3cn[nH]c3)cc2n1)Cc1ccccc1
result: < 100 nM
--
compound: Cc1noc(C)c1-c1cnc2ccc(NC(=O)NC3CCCC3)nc2c1
result: 100 to 1000 nM
--
compound: COC(=O)C#Cc1cnc2ccc(NC(=O)NC3CCCC3)nc2c1
result: 1000 to 10000 nM
--
compound: COc1c(-c2cnn(C)c2)cnc2ccc(NC(=O)NC3CCCC3)nc12
result: < 100 nM
--
compound: O=C(Nc1ccc2ncc(-c3cnn(CCCN4CCOCC4)c3)cc2n1)N[C@@H]1CCN(Cc2ccccc2)C1
result: < 100 nM
--
compound: O=C(Nc1ccc2ncc(-c3cn[nH]c3)cc2n1)NC1CC[C@H](O)C1 (stereo partly shown)
result: < 100 nM
--
compound: O=C(Nc1ccc2ncc(-c3cn[nH]c3)cc2n1)N[C@@H]1CCC[C@H]1OCc1ccccc1
result: < 100 nM
--
compound: CN(C)CCCn1cc(-c2cnc3ccc(NC(=S)NC4CCCC4)nc3c2)cn1
result: < 100 nM
--
compound: O=C(Nc1ccc2ncc(-c3c[nH]nc3C(F)(F)F)cc2n1)NC1CCCC1
result: < 100 nM
--
compound: O=C(Nc1ccc2ncc(-c3cnn(CCCCN4C(=O)c5ccccc5C4=O)c3)cc2n1)NC1CCCC1
result: 100 to 1000 nM
--
compound: C[C@@H](NC(=O)Nc1ccc2ncc(-c3cn[nH]c3)cc2n1)c1ccccc1
result: < 100 nM
--
compound: O=C(NCC1CCOCC1)Nc1ccc2ncc(-c3cn[nH]c3)cc2n1
result: < 100 nM
--
compound: O=C(Nc1ccc2ncc(-c3cnn(C4CNC4)c3)cc2n1)NC1CCCC1
result: 100 to 1000 nM
--
compound: O=C(Nc1ccc2ncc(-c3cn[nH]c3)cc2n1)NC1CCCC1
result: < 100 nM
--
compound: CC1(NC(=O)Nc2ccc3ncc(N4CCOCC4)cc3n2)CCCC1
result: < 100 nM
--
compound: O=C(NCCOCc1ccccc1)Nc1ccc2ncc(-c3cn[nH]c3)cc2n1
result: < 100 nM
